target: Serine/threonine-protein kinase B-raf (Homo sapiens, UniProt P15056, V600E); test: Inhibition of BRAF V599E mutant (unknown origin)
Sequence (P15056 2-766 V600E limits assumed): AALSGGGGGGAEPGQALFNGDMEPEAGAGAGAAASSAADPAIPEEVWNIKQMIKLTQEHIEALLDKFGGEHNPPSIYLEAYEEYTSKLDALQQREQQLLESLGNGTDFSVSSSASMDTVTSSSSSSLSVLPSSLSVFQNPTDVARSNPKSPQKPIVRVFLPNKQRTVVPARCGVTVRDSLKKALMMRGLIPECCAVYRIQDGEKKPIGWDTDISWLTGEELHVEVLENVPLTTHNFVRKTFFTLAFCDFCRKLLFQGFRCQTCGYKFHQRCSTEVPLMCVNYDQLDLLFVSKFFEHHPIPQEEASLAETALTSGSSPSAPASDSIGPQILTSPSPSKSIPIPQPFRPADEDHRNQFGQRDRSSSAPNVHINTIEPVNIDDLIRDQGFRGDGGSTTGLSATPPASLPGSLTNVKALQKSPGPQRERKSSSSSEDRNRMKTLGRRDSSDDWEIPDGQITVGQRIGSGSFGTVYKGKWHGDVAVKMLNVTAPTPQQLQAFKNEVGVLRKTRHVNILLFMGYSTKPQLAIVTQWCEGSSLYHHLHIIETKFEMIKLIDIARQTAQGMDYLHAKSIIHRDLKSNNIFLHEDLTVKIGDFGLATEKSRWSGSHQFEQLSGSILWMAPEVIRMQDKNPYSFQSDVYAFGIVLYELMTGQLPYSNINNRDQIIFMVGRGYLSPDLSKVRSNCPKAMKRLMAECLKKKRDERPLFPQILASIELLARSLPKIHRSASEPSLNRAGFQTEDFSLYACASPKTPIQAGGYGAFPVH
Outcome Measure: pIC50
pIC50 here is simply -log10 of the concentration when that concentration is written in mol/L.

Q. Which measured pIC50 value corresponds to "Cc1cncn1-c1cc(C(=O)Nc2cccc(CNc3ccc4c(C(=O)N[C@@H](C)C(N)=O)[nH]nc4c3)c2)cc(C(F)(F)F)c1" ?
A. 5.11
